system-name: T1, HLA-A*0201 on T2 cells (human)
T1 construct: whole, on cells; also called HLA-A2
experiment-summary: T2 cell binding assay, flow cytometry
Numbered stars: 1 amine (or outer) side, 2 acyl side, 3 side chain; on linkers, the order of the positions; unused ones are H or OH. Square brackets hold non-standard residues; d marks the D form. Ends that are not written are not given here. O‑methyltyrosine = COc1ccc(C[C@H](N[*:1])C(=O)[*:2])cc1; Phe(4-NO2) = N[C@@H](Cc1ccc([N+](=O)[O-])cc1)C(=O)O; Phg = N[C@H](C(=O)O)c1ccccc1
Labelling field: enter Satisfied if recorded Relative affinity (1/RA) is less than 1. Enter Not satisfied if it equals or exceeds that cut-off.

# binder, group-label
rows = [
    ("XASEKIFYV (β-(3-benzothienyl)-alanine at position 41 (P1)) [SSX2 41-49 (K41(b-(3-benzothienyl)Ala))]", "Satisfied"),
    ("[O‑methyltyrosine]ASEKIFYV [SSX2 41-49 (K41(O-methyl Tyr))]", "Satisfied"),
    ("[Phe(4-NO2)]ASEKIFYV (also called para-nitrophenylalanine analog) [SSX2 41-49 (K41(Phe-4N02))]", "Not satisfied"),
    ("YASEKIFYV [SSX2 41-49 (K41Y)]", "Not satisfied"),
    ("FASEKIFYV [SSX2 41-49 (K41F)]", "Not satisfied"),
    ("[Phg]ASEKIFYV [SSX2 41-49 (K41(Phg))]", "Not satisfied"),
]
